Tested on: Hela cell line
Assay: Cytotoxicity MTS assay, Hela cell line;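 further: blank control wells received 0.025% DMSO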
Type: cell-based
Settings: Hela cell line, MTS, 100μM, second assay
Procedure: The positive compounds (IC50 < 100 μM) obtained from the primary Eg5 motor protein ATPase assay were tested for antiproliferative activity in vitro against Caco-2 cell line, Hela cell line, L929 cell line and T24 cell line by performing MTS assay. Cells were introduced into 96-well plates at a density of 1000 cells per well. After 24 h incubation, the cells were exposed with compounds at final concentrations ranging from 0.5 to 100 µM for 24 h. […]
Record rule met whenever OD490 value, Well 1 is at 2 or higher; record rule not met when lower.

Study these solved cases before continuing.
CCOC(=O)c1c(C2NC(=O)NC(C)=C2C(=O)Nc2ccccc2C)[nH]c(C(=O)OC)c1C (centres unmarked) [D2]; rule not met
CCOC(=O)c1[nH]c(C2NC(=O)NC(C)=C2C(=O)Nc2ccc(Cl)cc2)c(C(=O)OCC)c1C (centres unmarked); rule not met
CCOC(=O)c1[nH]c(C2NC(=O)NC(C)=C2C(=O)Nc2ccccc2OC)c(C(=O)OC)c1C (centres unmarked); rule not met
CCOC(=O)c1[nH]c(C2NC(=S)NC(C)=C2C(=O)OC)c(C(=O)OCC)c1C (centres unmarked); rule met
CCOc1ccccc1C1NC(=S)NC(C)=C1C(=O)Nc1ccc(Cl)cc1 (centres unmarked); rule not met

Task: Given CCOC(=O)c1c(C2NC(=O)NC(C)=C2C(=O)Nc2ccccc2)[nH]c(C(=O)OC)c1C (centres unmarked) , state whether its OD490 value, Well 1 is at least 2.
Result: rule not met

###

system: Caco-2 cell line; assay: Cytotoxicity MTS assay, Caco-2 cell line; type: cell-based; conditions: 50μM; third assay; Caco-2 cell line
Outcome Measure: OD490 Well 3
Please reply with the number alone, leaving off any unit.

The examples below pair each entry with its known result.
CCOC(=O)C1=C(C)NC(=S)NC1c1cccc(O)c1 (stereo not shown) [Monastrol, monastrol, reference compound]; 0.5214
CCOC(=O)c1[nH]c(C2NC(=O)NC(C)=C2C(=O)Nc2ccc(Cl)cc2)c(C(=O)OCC)c1C (stereo not shown); 0.3987

Task: Entry CCOC(=O)c1c(C2NC(=O)NC(C)=C2C(=O)Nc2ccccc2C)[nH]c(C(=O)OC)c1C (stereo not shown) [D2] has what OD490 Well 3?
Result: 0.5321

###

test system: Caco-2 cell line; test: Cytotoxicity MTS assay, Caco-2 cell line; type: cell-based; details: 1μM; first assay; Caco-2 cell line
Outcome Measure: OD490 Well 2
Please reply with the number alone, leaving off any unit.

The examples below pair each entry with its known result.
CCOC(=O)c1c(C2NC(=O)NC(C)=C2C(=O)Nc2ccccc2OC)[nH]c(C(=O)OC)c1C (stereo not drawn) [D1]; 0.6209
CCOC(=O)c1[nH]c(C2NC(=O)NC(C)=C2C(=O)Nc2ccccc2C)c(C(=O)OC)c1C (stereo not drawn); 0.5673
CCOC(=O)c1[nH]c(C2NC(=O)NC(C)=C2C(=O)Nc2ccc(Cl)cc2)c(C(=O)OCC)c1C (stereo not drawn); 0.5318
CCOC(=O)c1[nH]c(C2NC(=S)NC(C)=C2C(=O)OC)c(C(=O)OCC)c1C (stereo not drawn); 0.5352
CCOC(=O)C1=C(C)NC(=S)NC1c1cccc(O)c1 (stereo not drawn) [Monastrol, monastrol, reference compound]; 0.6037

Task: Entry CCOc1ccccc1C1NC(=S)NC(C)=C1C(=O)Nc1ccc(Cl)cc1 (stereo not drawn) has what OD490 Well 2?
Result: 0.6683

Task: Entry CCOC(=O)c1[nH]c(C2NC(=O)NC(C)=C2C(=O)Nc2ccccc2OC)c(C(=O)OC)c1C (stereo not drawn) has what OD490 Well 2?
Result: 0.6612

Task: Entry CCOC(=O)c1c(C2NC(=O)NC(C)=C2C(=O)Nc2ccccc2)[nH]c(C(=O)OC)c1C (stereo not drawn) has what OD490 Well 2?
Result: 0.4910

Task: Entry CCOC(=O)c1c(C2NC(=O)NC(C)=C2C(=O)Nc2ccccc2C)[nH]c(C(=O)OC)c1C (stereo not drawn) [D2] has what OD490 Well 2?
Result: 0.6946

###

tested on: Hela cell line; assay: Cytotoxicity MTS assay, Hela cell line; assay type: cell-based; conditions: Hela cell line, MTS, 25μM, second assay;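 further: blank control wells received 0.025% DMSO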
OD490 value, Mean values by entry
Please reply with the number alone, leaving off any unit.

The examples below pair each entry with its known result.
CCOC(=O)c1[nH]c(C2NC(=O)NC(C)=C2C(=O)Nc2ccccc2OC)c(C(=O)OC)c1C (centres unmarked); 2.3999
CCOc1ccccc1C1NC(=S)NC(C)=C1C(=O)Nc1ccc(Cl)cc1 (centres unmarked); 1.8416
CCOC(=O)c1[nH]c(C2NC(=O)NC(C)=C2C(=O)Nc2ccc(Cl)cc2)c(C(=O)OCC)c1C (centres unmarked); 2.6325

Task: Entry CCOC(=O)c1c(C2NC(=O)NC(C)=C2C(=O)Nc2ccccc2C)[nH]c(C(=O)OC)c1C (centres unmarked) [D2] has what OD490 value, Mean?
Result: 2.6474

Task: Entry CCOC(=O)c1[nH]c(C2NC(=S)NC(C)=C2C(=O)OC)c(C(=O)OCC)c1C (centres unmarked) has what OD490 value, Mean?
Result: 2.5197

Task: Entry CCOC(=O)c1c(C2NC(=O)NC(C)=C2C(=O)Nc2ccccc2OC)[nH]c(C(=O)OC)c1C (centres unmarked) [D1] has what OD490 value, Mean?
Result: 2.1914

Task: Entry CCOC(=O)c1[nH]c(C2NC(=O)NC(C)=C2C(=O)Nc2ccccc2C)c(C(=O)OC)c1C (centres unmarked) has what OD490 value, Mean?
Result: 2.6351

Task: Entry CCOC(=O)c1c(C2NC(=O)NC(C)=C2C(=O)Nc2ccccc2)[nH]c(C(=O)OC)c1C (centres unmarked) has what OD490 value, Mean?
Result: 2.1531

###

Test system: Hela cell line
Experiment: Cytotoxicity MTS assay, Hela cell line;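 further: blank control wells received 0.025% DMSO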
Assay type: cell-based
Conditions: Hela cell line, MTS, 1μM, third assay
Protocol: The positive compounds (IC50 < 100 μM) obtained from the primary Eg5 motor protein ATPase assay were tested for antiproliferative activity in vitro against Caco-2 cell line, Hela cell line, L929 cell line and T24 cell line by performing MTS assay. Cells were introduced into 96-well plates at a density of 1000 cells per well. After 24 h incubation, the cells were exposed with compounds at final concentrations ranging from 0.5 to 100 µM for 24 h. […]
Outcome Measure: OD490 value, Well 1
Please reply with the number alone, leaving off any unit.

CCOC(=O)c1c(C2NC(=O)NC(C)=C2C(=O)Nc2ccccc2C)[nH]c(C(=O)OC)c1C (centres unmarked) [D2]; 2.5645
CCOC(=O)c1[nH]c(C2NC(=O)NC(C)=C2C(=O)Nc2ccccc2C)c(C(=O)OC)c1C (centres unmarked); 2.6540
CCOC(=O)c1c(C2NC(=O)NC(C)=C2C(=O)Nc2ccccc2)[nH]c(C(=O)OC)c1C (centres unmarked); 2.6360
CCOC(=O)c1[nH]c(C2NC(=S)NC(C)=C2C(=O)OC)c(C(=O)OCC)c1C (centres unmarked); 2.5896

Task: Entry CCOC(=O)c1c(C2NC(=O)NC(C)=C2C(=O)Nc2ccccc2OC)[nH]c(C(=O)OC)c1C (centres unmarked) [D1] has what OD490 value, Well 1?
Result: 2.6969

Task: Entry CCOc1ccccc1C1NC(=S)NC(C)=C1C(=O)Nc1ccc(Cl)cc1 (centres unmarked) has what OD490 value, Well 1?
Result: 2.4685

Task: Entry CCOC(=O)c1[nH]c(C2NC(=O)NC(C)=C2C(=O)Nc2ccc(Cl)cc2)c(C(=O)OCC)c1C (centres unmarked) has what OD490 value, Well 1?
Result: 2.6686

Task: Entry CCOC(=O)c1[nH]c(C2NC(=O)NC(C)=C2C(=O)Nc2ccccc2OC)c(C(=O)OC)c1C (centres unmarked) has what OD490 value, Well 1?
Result: 2.6365

###

OD630 Value Mean values by entry
Target: Eg5 motor protein (Homo sapiens, UniProt P52732)
Construct: Eg5 motor domain (amino acids 1-368) was cloned into pET22b; His-tag (C); made in house; host or cells: Escherichia coli BL21 (DE3)
Sequence (P52732 1-368): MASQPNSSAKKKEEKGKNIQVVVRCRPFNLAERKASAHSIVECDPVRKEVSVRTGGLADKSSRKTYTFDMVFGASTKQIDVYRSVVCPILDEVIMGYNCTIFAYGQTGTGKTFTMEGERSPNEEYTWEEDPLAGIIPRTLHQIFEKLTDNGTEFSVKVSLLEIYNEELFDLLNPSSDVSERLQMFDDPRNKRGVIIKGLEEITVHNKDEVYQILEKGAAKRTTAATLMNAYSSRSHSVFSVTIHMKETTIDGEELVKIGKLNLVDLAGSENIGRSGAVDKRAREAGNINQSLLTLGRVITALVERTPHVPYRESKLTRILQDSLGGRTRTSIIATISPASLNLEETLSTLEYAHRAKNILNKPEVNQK
Assay: microtubule-activated Eg5 motor protein ATPase assay (malachite green, OD630)
Type: biochemical
Settings: compound 80.81 uM
Please reply with the number alone, leaving off any unit.

The examples below pair each entry with its known result.
COC(=O)c1[nH]c(C2NC(=S)NC(C)=C2C(=O)c2ccccc2)c(C(=O)OC)c1C (stereo not drawn); 0.151
CCOC(=O)c1[nH]c(C2NC(=S)NC(C)=C2C(=O)OC)c(C(=O)OCC)c1C (stereo not drawn); 0.141
CCOC(=O)c1c(C2NC(=O)NC(C)=C2C(=O)Nc2ccccc2)[nH]c(C(=O)OC)c1C (stereo not drawn); 0.197

Task: Entry CCOC(=O)c1c(C2NC(=O)NC(C)=C2C(=O)Nc2ccccc2C)[nH]c(C(=O)OC)c1C (stereo not drawn) [D2] has what OD630 Value Mean?
Result: 0.137

Task: Entry CCOC(=O)c1[nH]c(C2NC(=O)NC(C)=C2C(=O)Nc2ccc(Cl)cc2)c(C(=O)OCC)c1C (stereo not drawn) has what OD630 Value Mean?
Result: 0.164

Task: Entry CCOc1ccccc1C1NC(=S)NC(C)=C1C(=O)Nc1ccc(Cl)cc1 (stereo not drawn) has what OD630 Value Mean?
Result: 0.157
